ASSAY_COMMENT: Fluorescence characteristics of base analog nucleosides
Format: physicochemical
CONDITION_PARAMETERS: deoxyribonucleoside derivative
Lab note: cut-off is 90 nm. Strictly less in Stokes shift is t. Exactly 90 nm or more is f.

| COMPOUND | GROUP |
| --- | --- |
| Nc1nc(-c2nccs2)c2ncn([C@H]3C[C@H](O)[C@@H](CO)O3)c2n1 [dv, reference compound] | f |
| c1csc(-c2ccnc3nc[nH]c23)c1 [ds, 7-(2-thienyl)-imidazo[4,5-b]pyridine, reference compound] | t |
| OC[C@H]1O[C@@H](n2ccc3c(-c4ccc(-c5cccs5)s4)ccnc32)C[C@@H]1O [dDsas] | t |
| OC[C@H]1O[C@@H](n2cnc3c(-c4ccc(-c5ccc(-c6cccs6)s5)s4)ccnc32)C[C@@H]1O [dDsss] | t |

// provenance: patent US8686130B2
